B1: Nitrate/nitrite sensor protein NarX (Escherichia coli (strain K12)), P0AFA2 (parent)
chain: MLKRCLSPLTLVNQVALIVLLSTAIGLAGMAVSGWLVQGVQGSAHAINKAGSLRMQSYRLLAAVPLSEKDKPLIKEMEQTAFSAELTRAAERDGQLAQLQGLQDYWRNELIPALMRAQNRETVSADVSQFVAGLDQLVSGFDRTTEMRIETVVLVHRVMAVFMALLLVFTIIWLRARLLQPWRQLLAMASAVSHRDFTQRANISGRNEMAMLGTALNNMSAELAESYAVLEQRVQEKTAGLEHKNQILSFLWQANRRLHSRAPLCERLSPVLNGLQNLTLLRDIELRVYDTDDEENHQEFTCQPDMTCDDKGCQLCPRGVLPVGDRGTTLKWRLADSHTQYGILLATLPQGRHLSHDQQQLVDTLVEQLTATLALDRHQERQQQLIVMEERATIARELHDSIAQSLSCMKMQVSCLQMQGDALPESSRELLSQIRNELNASWAQLRELLTTFRLQLTEPGLRPALEASCEEYSAKFGFPVKLDYQLPPRLVPSHQAIHLLQIAREALSNALKHSQASEVVVTVAQNDNQVKLTVQDNGCGVPENAIRSNHYGMIIMRDRAQSLRGDCRVRRRESGGTEVVVTFIPEKTFTDVQGDTHE

Variants of: B1
Measurement conditions: with narl_ecoli narL

| Variant annotation | effect of a mutation on the interaction |
| --- | --- |
| H399Q;Q404H | disrupting interaction |
| H399Q;D400A | decreasing interaction |
| H399Q;Q404A | disrupting interaction |
| H399Q | decreasing interaction |
